- test details: Drug level in rabbit liver microsomes treated with 4-(4-(1H-pyrazol-1-yl)benzyl)-N-((3R,4S)-3-hydroxytetrahydro-2H-pyran-4-yl)-5-methylpicolinamide at 20 uM after 60 mins by UHPLC-UV-HRMS analysis
- Assay type: ADME, Oryctolagus cuniculus, microsome
result type: Drug metabolism

- Cc1cnc(C(=O)N[C@H]2CCOC[C@@H]2O)cc1C(O)c1ccc(-n2cccn2)cc1 (stereo in doubt; 11a): Metabolite_Detected
- Cc1cnc(C(=O)N[C@H]2CCOC[C@@H]2O)cc1Cc1ccc(-n2cc(O)cn2)cc1: Metabolite_Detected
- Cc1cnc(C(=O)N[C@@H](CCO)[C@@H](O)CO)cc1Cc1ccc(-n2cccn2)cc1: Metabolite_Detected
- Cc1cnc(C(=O)N[C@H]2CCOC(O)[C@@H]2O)cc1Cc1ccc(-n2cccn2)cc1 (stereo partly specified): Metabolite_Detected
- Cc1cnc(C(=O)N[C@H]2CC(O)OC[C@@H]2O)cc1Cc1ccc(-n2cccn2)cc1 (stereo partly specified): Metabolite_Detected

Pending compound:
State its Drug metabolism for this compound: O=C(N[C@H]1CCOC[C@@H]1O)c1cc(Cc2ccc(-n3cccn3)cc2)c(CO)cn1
Metabolite_Detected

----------
- experimental system: Muscarinic acetylcholine receptor M1 (Homo sapiens)
- test details: Positive allosteric modulation of human muscarinic M1 receptor expressed in CHO cells assessed as increase in ACh-induced intracellular calcium level preincubated for 10 mins followed by ACh addition measured every 2 secs for 80 secs by Fluo-4 dye-based FLIPR assay
- Type: functional, cell-based
pEC50: −log10 of the molar value.
result type: pEC50

• Cc1cnc(C(=O)N[C@H]2CCOC(O)[C@@H]2O)cc1Cc1ccc(-c2cscn2)cc1 (some centres not stated) = 6.79
• O=C(N[C@H]1CCC(O)C[C@@H]1O)c1cn(Cc2ccc(-n3cccn3)cc2)c2cccnc12 (stereo in doubt; 20a) = 6.78
• O=C(N[C@H]1CCOC[C@@H]1O)c1cc(Cc2ccc(-n3cccn3)cc2)c(CO)cn1 = 6.47
• Cn1c(CO)c(Cc2ccc(-n3cccn3)cc2)cc(C(=O)N[C@H]2CCC(O)C[C@@H]2O)c1=O (some centres not stated) = 6.75
• Cn1c(CO)c(Cc2ccc(-n3cccn3)cc2)cc(C(=O)N[C@H]2CCCC[C@@H]2O)c1=O = 7.40
• Cc1cnc(C(=O)N[C@H]2CCOC[C@@H]2O)cc1Cc1ccc(-n2cc(O)cn2)cc1 = 7.15
• O=C(N[C@H]1CCCC[C@@H]1O)c1cn(Cc2ccc([N+]3([O-])C=CC=N3)cc2)c2cccnc12 (some centres not stated) = 7.47
• O=C(N[C@H]1CCC(O)C[C@@H]1O)c1cn(Cc2ccc(-n3cccn3)cc2)c2cccnc12 (stereo in doubt; 20b) = 7.80

a. Cc1c(Cc2ccc(-n3cccn3)cc2)cc(C(=O)N[C@H]2CCC(O)C[C@@H]2O)c(=O)n1C (some centres not stated)
b. Cc1cnc(C(=O)N[C@H]2CCOC(O)[C@@H]2O)cc1Cc1ccc(-n2cccn2)cc1 (some centres not stated)
c. Cc1[nH]c(=O)c(C(=O)N[C@H]2CC(O)CC[C@@H]2O)cc1Cc1ccc(-n2cccn2)cc1 (some centres not stated)
Rank entries according to their pEC50, from the largest number down. Quick reminder: the answer is the labels in the order asked.
c, a, b
(c: 7.92, a: 7.20, b: 6.29)

----------
- System: MDR1
- test details: Efflux ratio of permeability in MDCK cells expressing MDR1
- Format: ADME, cell-based, Canis lupus familiaris
- settings: dog
result type: efflux ratio

I. O=C(N[C@H]1CCOC[C@@H]1O)c1cc(Cc2ccc(-n3cccn3)cc2)c(CO)cn1
II. Cc1c(Cc2ccc(-n3cccn3)cc2)cc(C(=O)N[C@H]2CCCC[C@@H]2O)c(=O)n1C
Please compare: I and II . Report which one has the smaller efflux ratio value. Bench note: the answer is the label of the chosen record.
II
(II: 2.7, I: 15.9)

----------
- experimental system: Muscarinic acetylcholine receptor M1 (Homo sapiens, UniProt P11229)
- Sequence (P11229 whole entry): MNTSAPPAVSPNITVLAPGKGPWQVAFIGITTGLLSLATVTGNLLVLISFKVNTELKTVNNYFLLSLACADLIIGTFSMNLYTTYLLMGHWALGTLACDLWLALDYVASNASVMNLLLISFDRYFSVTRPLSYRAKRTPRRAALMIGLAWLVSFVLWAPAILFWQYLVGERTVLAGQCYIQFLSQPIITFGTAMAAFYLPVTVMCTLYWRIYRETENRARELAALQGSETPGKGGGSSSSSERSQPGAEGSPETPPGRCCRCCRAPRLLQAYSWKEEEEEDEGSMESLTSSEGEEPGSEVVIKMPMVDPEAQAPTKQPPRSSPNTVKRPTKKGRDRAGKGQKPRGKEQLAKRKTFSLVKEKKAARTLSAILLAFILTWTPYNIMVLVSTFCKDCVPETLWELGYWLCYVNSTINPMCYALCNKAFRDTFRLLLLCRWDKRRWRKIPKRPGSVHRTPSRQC
- test details: Positive allosteric modulation of human muscarinic M1 receptor expressed in CHO cells assessed as increase in ACh-induced intracellular calcium level preincubated for 10 mins followed by ACh addition measured every 2 secs for 80 secs by Fluo-4 dye-based FLIPR assay
- Format: functional, cell-based
Reported EC50 is given for each of the following molecules.

- Cc1cnc(C(=O)N[C@H]2CCOC[C@@H]2O)cc1C(O)c1ccc(-n2cccn2)cc1 (stereo in doubt; 11a): > 1000 nM
- Cc1cnc(C(=O)N[C@H]2CC(O)OC[C@@H]2O)cc1Cc1ccc(-n2cccn2)cc1 (stereo partly specified): > 3000 nM
- Cn1ccc(-c2ccc(Cn3cc(C(=O)N[C@H]4CC(O)OC[C@@H]4O)c4ncccc43)cc2)n1 (stereo partly specified): > 207 nM
- Cc1cnc(C(=O)N[C@@H](CCO)[C@@H](O)CO)cc1Cc1ccc(-n2cccn2)cc1: > 300 nM
- Cn1ccc(-c2ccc(Cn3cc(C(=O)N[C@H]4CCOC(O)[C@@H]4O)c4ncccc43)cc2)n1 (stereo partly specified): > 257 nM

Give the reported EC50 for this molecule. O=C(N[C@H]1C(O)CCC[C@@H]1O)c1cn(Cc2ccc(-n3cccn3)cc2)c2cccnc12 (stereo partly specified)
> 249 nM

Output measured EC50 for this item: Cc1cnc(C(=O)N[C@H]2CCOC[C@@H]2O)cc1C(O)c1ccc(-c2cscn2)cc1 (stereo in doubt; 14b)
> 1100 nM

Answer with the recorded EC50 for the molecule listed here: Cn1ccc(-c2ccc(Cn3cc(C(=O)N[C@H]4CCOC[C@@H]4O)c4nc(C=O)ccc43)cc2)n1
184 nM

In one line, give reported EC50 of the entry Cn1ccc(-c2ccc(Cn3cc(C(=O)N[C@H]4CCOC[C@@H]4O)c4nc(CO)ccc43)cc2)n1 .
99 nM

Identify measured EC50 corresponding to O=C(N[C@H]1CC(O)CC[C@@H]1O)c1cn(Cc2ccc(-n3cccn3)cc2)c2cccnc12 (stereo partly specified)
> 72 nM

Query EC50 for Cc1cnc(C(=O)N[C@H]2CCOC[C@@H]2O)cc1C(O)c1ccc(-c2cscn2)cc1 (stereo in doubt; 14a)
> 4150 nM
